molecular target: 5-HT1A receptor (Homo sapiens (Human), UniProt P08908); test: FLIPR Ca2+ flux functional assay at 5-HT1A (CHO cells); conditions: Ca2+ flux, CHO cells, at max concentration
Could you please report measured 5-HT1A % Act @ Max Conc. for the items listed next?
Could you give me the number in %? Just the number is fine.

Challenge: Give the measured 5-HT1A % Act @ Max Conc. of COc1cc(Br)c(OC)nc1CC(C)N (stereo not shown) .
Response given: 1.66

Challenge: // returns reported 5-HT1A % Act @ Max Conc. for input CCCCCc1cc(OC)c(CC(N)CC)nc1OC (stereo not shown)
Response given: 188

Challenge: Recorded 5-HT1A % Act @ Max Conc. of COc1cc(C)c(OC)nc1CC(C)N (stereo not shown) , please.
Response given: 0.59

Challenge: For the molecule shown here, CCC(N)Cc1nc(OC)c(Cl)cc1OC (stereo not shown) , give the reported 5-HT1A % Act @ Max Conc..
Response given: 1.33

Challenge: Request the reported 5-HT1A % Act @ Max Conc. associated with CCCCCc1cc(OC)c(CCN)cc1OC [Compound 43, reference compound]
Response given: 18.9

Challenge: If you can, please state the reported 5-HT1A % Act @ Max Conc. value of `COc1cc(Br)c(OC)nc1CCN` .
Response given: 2.11

Challenge: What value of measured 5-HT1A % Act @ Max Conc. is listed for CCC(N)Cc1cc(OC)c(C)cc1OC (stereo not shown) [Compound 39, reference compound] ?
Response given: 8.7

Challenge: // returns reported 5-HT1A % Act @ Max Conc. for input CCSc1cc(OC)c(CC(N)CC)nc1OC (stereo not shown)
Response given: 2.99

Challenge: Return reported 5-HT1A % Act @ Max Conc.; argument: COc1cc(CCN)c(OC)cc1Br [Compound 2C-B, 2C-B, reference compound]
Response given: 47.8

Challenge: Suppose we examine the molecule CCCCCc1nc(OC)c(CC(N)CC)nc1OC (stereo not shown) ; what 5-HT1A % Act @ Max Conc. value has been reported?
Response given: 170

---

molecular target: UniProt:P28335; test: FLIPR Ca2+ flux functional assay at 5-HT2C (Eurofins DiscoverX); type: cell-based; conditions: Ca2+ flux, human 5-HT2C, at max concentration
Would you kindly list 5-HT2C % Act @ Max Conc. for each of these compounds?
Give the quantity in %, number only.

Challenge: For COc1cc(CCN)cc(OC)c1OC [Mescaline, reference compound] , what is its reported 5-HT2C % Act @ Max Conc.?
Response given: 91.1

Challenge: Requested read-out: 5-HT2C % Act @ Max Conc.. Entry: CCCCCc1cc(OC)c(CC(N)CC)nc1OC (stereo not shown)
Response given: 44.38

Challenge: Quick one: 5-HT2C % Act @ Max Conc. of `CCCCCc1cc(OC)c(CCN)nc1OC` ?
Response given: 92.53

Challenge: Please look up its 5-HT2C % Act @ Max Conc.: COc1cc(C(F)(F)F)c(OC)cc1CCN [Compound 2C-TFM, 2C-TFM, reference compound]
Response given: 88.2

Challenge: For the compound shown here, CCCCCc1cc(OC)c(CC(N)CC)cc1OC (stereo not shown) , give the reported 5-HT2C % Act @ Max Conc..
Response given: 115

Challenge: Which 5-HT2C % Act @ Max Conc. is listed for `COc1cc(CCCCF)c(OC)nc1CCN` ?
Response given: 99.77

Challenge: Could you share which 5-HT2C % Act @ Max Conc. value was measured for CCC(N)Cc1cc(OC)c(C)cc1OC (stereo not shown) [Compound 39, reference compound] ?
Response given: 99.3

Challenge: Return reported 5-HT2C % Act @ Max Conc.; argument: CCCc1cc(OC)c(CC(N)CC)cc1OC (stereo not shown) [Compound 40, reference compound]
Response given: 93.58

Challenge: Could you tell me which 5-HT2C % Act @ Max Conc. is on file for CCCCCCc1cc(OC)c(CC(C)N)nc1OC (stereo not shown) ?
Response given: 79.49

Challenge: Which 5-HT2C % Act @ Max Conc. reading was recorded for the compound COc1cc(CCNCc2ccccc2OC)c(OC)cc1C [Compound 25D-NBOMe, 25D-NBOMe, reference compound] ?
Response given: 91.5

---

molecular target: 5-HT2B receptor (Homo sapiens (Human), UniProt P41595); assay: FLIPR Ca2+ flux functional assay at 5-HT2B (HEK293); conditions: read-out: 5-HT2B EC50; Ca2+ flux, HEK293
Sequence (P41595 whole entry, looked up): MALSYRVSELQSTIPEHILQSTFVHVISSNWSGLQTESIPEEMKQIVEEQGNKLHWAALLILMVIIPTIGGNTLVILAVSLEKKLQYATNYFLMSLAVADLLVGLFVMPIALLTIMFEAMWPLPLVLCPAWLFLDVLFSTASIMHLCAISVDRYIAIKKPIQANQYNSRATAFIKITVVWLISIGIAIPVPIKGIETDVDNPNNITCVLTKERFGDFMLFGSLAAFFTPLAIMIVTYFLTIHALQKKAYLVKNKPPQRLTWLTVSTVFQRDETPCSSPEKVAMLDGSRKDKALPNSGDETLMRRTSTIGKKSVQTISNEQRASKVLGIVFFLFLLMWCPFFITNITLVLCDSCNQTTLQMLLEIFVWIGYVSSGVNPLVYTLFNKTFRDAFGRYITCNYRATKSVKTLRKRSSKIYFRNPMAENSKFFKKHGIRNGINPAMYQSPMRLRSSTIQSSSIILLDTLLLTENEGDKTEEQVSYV
pEC50: −log10 of the molar value.
Label Not satisfied if pEC50 falls below 8; label Satisfied in every other case.

Challenge: Record COc1cc(CCN)c(OC)cc1Br [Compound 2C-B, 2C-B, reference compound] ; criterion: pEC50 no lower than 8. Met?
Response given: Not satisfied

Challenge: Assess whether reported pEC50 for COc1cc(CCNCc2ccccc2OC)c(OC)cc1C [Compound 25D-NBOMe, 25D-NBOMe, reference compound] sits at 8 or higher.
Response given: Satisfied

Challenge: Is pEC50 at least 8? Consider CCc1cc(OC)c(CCN)cc1OC [Compound 2C-E, 2C-E, reference compound]
Response given: Not satisfied

Challenge: Reported pEC50 reaches at least 8 for COc1cc(CC(C)N)c(OC)cc1I (centres unmarked) [DOI, reference compound] ?
Response given: Satisfied

---

target: UniProt P41595; assay: FLIPR Ca2+ flux functional assay at 5-HT2B (HEK293); details: Ca2+ flux, HEK293, at max concentration
READOUT: 5-HT2B % Act @ Max Conc. (%)
Use % as the unit, but write only the number.

Challenge: // 5-HT2B % Act @ Max Conc. lookup, key: CCCCCc1cc(OC)c(CCN)cc1OC [Compound 43, reference compound]
Response given: 62.2

Challenge: For the molecule `CCCCc1cc(OC)c(CCN)nc1OC` , what 5-HT2B % Act @ Max Conc. is on record?
Response given: 7.29

Challenge: Sample `COc1cc(Br)c(OC)nc1CCN` — what was its 5-HT2B % Act @ Max Conc.?
Response given: 38.01

Challenge: What does the data say about its 5-HT2B % Act @ Max Conc.? Entry: `COc1cc(C)c(OC)nc1CCN`
Response given: 36.99

Challenge: Name the reported 5-HT2B % Act @ Max Conc. value associated with the molecule `CCCCCc1cc(OC)c(CCN)nc1OC`
Response given: 11.56

Challenge: Any idea what its 5-HT2B % Act @ Max Conc. is? The molecule is CCCCCc1nc(OC)c(CC(N)CC)cc1OC (centres unmarked)
Response given: 6.92

Challenge: Consider the molecule shown here: CCCc1cc(OC)c(CC(N)CC)nc1OC (centres unmarked) What is its recorded 5-HT2B % Act @ Max Conc.?
Response given: 12.18

Challenge: Look up 5-HT2B % Act @ Max Conc.: CCc1cc(OC)c(CCN)cc1OC [Compound 2C-E, 2C-E, reference compound]
Response given: 66.2

Challenge: Endpoint output: 5-HT2B % Act @ Max Conc. of COc1cc(CC(C)N)c(OC)cc1I (centres unmarked) [DOI, reference compound] . Value?
Response given: 86.3

Challenge: Dear colleague, I am looking for the recorded 5-HT2B % Act @ Max Conc. of the following molecule: COc1cc(Br)c(OC)nc1CC(C)N (centres unmarked)
Response given: 70.54

Challenge: Entry under review: `COc1cc(Cl)c(OC)nc1CCN` . Reported 5-HT2B % Act @ Max Conc.?
Response given: 38.95

---

Please provide measured EC50 for the entries that follow.
target: human 5-HT2C receptor (Homo sapiens (Human), UniProt P28335); assay: FLIPR Ca2+ flux functional assay at 5-HT2C (Eurofins DiscoverX); type: cell-based; settings: Ca2+ flux, human 5-HT2C; read-out: 5-HT2C EC50
Sequence (P28335 whole entry, looked up): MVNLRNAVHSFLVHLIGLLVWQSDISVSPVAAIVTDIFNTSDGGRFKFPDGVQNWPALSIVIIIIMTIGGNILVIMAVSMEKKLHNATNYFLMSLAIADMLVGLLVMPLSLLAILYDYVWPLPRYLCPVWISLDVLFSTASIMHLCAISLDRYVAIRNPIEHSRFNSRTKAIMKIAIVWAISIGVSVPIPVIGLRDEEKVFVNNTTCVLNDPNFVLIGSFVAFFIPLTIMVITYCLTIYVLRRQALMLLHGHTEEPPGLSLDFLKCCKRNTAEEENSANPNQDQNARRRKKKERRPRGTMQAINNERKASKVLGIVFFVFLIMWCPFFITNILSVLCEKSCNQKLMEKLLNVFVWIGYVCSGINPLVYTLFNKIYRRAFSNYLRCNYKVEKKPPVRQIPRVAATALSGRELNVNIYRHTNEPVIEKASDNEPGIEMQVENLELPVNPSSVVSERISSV
Give the quantity in nM, number only.

Challenge: Can you share its EC50? I mean this molecule: COc1cc(CC(C)N)c(OC)cc1I (centres unmarked) [DOI, reference compound]
Response given: 0.818

Challenge: EC50 lookup needed for CCC(N)Cc1nc(OC)c(Cl)cc1OC (centres unmarked) , thanks.
Response given: 2250

Challenge: Look at this molecule and give its reported EC50. `CCCCCc1cc(OC)c(CCN)nc1OC`
Response given: 16.2

Challenge: If you can, please state the reported EC50 value of CCCCCc1cc(OC)c(CC(N)CC)nc1OC (centres unmarked) .
Response given: 5470

Challenge: For the molecule COc1cc(C(F)(F)F)c(OC)cc1CCN [Compound 2C-TFM, 2C-TFM, reference compound] , what EC50 is on record?
Response given: 0.593

Challenge: I'd like to know its EC50. The molecule in question is `COc1cc(CCCCF)c(OC)nc1CCN`
Response given: 22.8

Challenge: I'd like to know its EC50. The molecule in question is CCCCCCc1cc(OC)c(CC(C)N)nc1OC (centres unmarked)
Response given: 159
